- ASSAYED TARGET: MAGL (recombinant wild-type) (Homo sapiens, UniProt Q99685)
- Sequence (Q99685 whole entry, species assumed): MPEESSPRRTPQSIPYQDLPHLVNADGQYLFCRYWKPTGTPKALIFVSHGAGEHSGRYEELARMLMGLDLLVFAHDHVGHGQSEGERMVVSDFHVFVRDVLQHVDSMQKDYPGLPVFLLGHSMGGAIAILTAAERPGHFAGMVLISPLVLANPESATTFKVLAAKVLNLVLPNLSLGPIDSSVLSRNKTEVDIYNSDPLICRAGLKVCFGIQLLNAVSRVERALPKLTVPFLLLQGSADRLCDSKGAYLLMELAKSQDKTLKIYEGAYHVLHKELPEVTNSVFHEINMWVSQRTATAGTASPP
- ASSAY TEXT: 4-NPA assay: MAGL inhibitory activity by hydrolysis of 4-nitrophenylacetate, absorbance at 405 nm
- STATED CONDITIONS: 4-NPA assay (values without footnote [a])
QUANTITY MEASURED: IC50 (nM)
State the answer as a number, implicitly in nM.

Req: Query IC50 on MAGL (recombinant wild-type) (Homo sapiens, UniProt Q99685) for O=C1COc2ccc(C(=O)N3CCC(c4csc5ccccc45)CC3)cc2N1
Resp: 97

Req: Notebook entry, MAGL (recombinant wild-type) (Homo sapiens, UniProt Q99685) assay: IC50 of CS(=O)(=O)c1cccc(C(c2ccccc2)C2CCN(C(=O)c3ccc4c(c3)NC(=O)CO4)CC2)c1 (single isomer, unassigned) [Example 129] = ?
Resp: 12.2

Req: # value lookup — system MAGL (recombinant wild-type) (Homo sapiens, UniProt Q99685), readout IC50, item COc1cc(C(=O)N2CCC(C(c3ccc(F)cc3)c3ccc(F)cc3)CC2)cc2c1CCC(=O)N2
Resp: 6.4

Req: IC50 of Cn1nc(C2CCN(C(=O)c3ccc4c(c3)NC(=O)CO4)CC2)c2ccc(Cl)cc21 on MAGL (recombinant wild-type) (Homo sapiens, UniProt Q99685)?
Resp: 84

Req: Hello, I am looking for reported IC50 with MAGL (recombinant wild-type) (Homo sapiens, UniProt Q99685) for O=C1COc2ccc(C(=O)N3CCC(C(c4ccc(F)cc4)c4ccc(F)nc4)CC3)cc2N1 (single isomer, unassigned) [Example 114] . Could you help?
Resp: 4

Req: Requested read-out IC50, target or system MAGL (recombinant wild-type) (Homo sapiens, UniProt Q99685), entry COc1ccc(C(c2cccnc2)C2CCN(C(=O)c3ccc4c(c3)NC(=O)CO4)CC2)cc1OC (single isomer, unassigned) [Example 122]
Resp: 3.6

Req: // map O=C1COc2ccc(C(=O)N3CCC(c4noc5cc(F)ccc45)CC3)cc2N1 to recorded IC50 (system: MAGL (recombinant wild-type) (Homo sapiens, UniProt Q99685))
Resp: 370

Req: GET /values?readout=IC50&system=MAGL (recombinant wild-type) (Homo sapiens, UniProt Q99685)&item= O=C1COc2ccc(C(=O)N3CCN(C(c4ccc(F)cc4)c4ccc(F)cc4)CC3)cc2N1
Resp: 5.83

Req: Please state recorded IC50 (tested on MAGL (recombinant wild-type) (Homo sapiens, UniProt Q99685)) of COc1cc(N2CCN(C(=O)c3ccc4c(c3)NC(=O)CO4)CC2)cc(OC)c1OC
Resp: 2740
